Let's look at some compounds and their measured Epc(V).
assaySummary: Determination of reduction potential by cyclic voltammetry
Type: physicochemical
experimentalConditions: cyclic voltammetry in dimethylformamide at Hg, vs. Ag/AgNO3; first or only reduction listed
Give the value in V but do not write V after it.

Cc1ncc([N+](=O)[O-])n1CCO [Metronidazole, reference compound] ... −1.62
CC(=NO)C(C)(C)NCCCNC(C)(C)C(Cn1cnc([N+](=O)[O-])c1)=NO ... −1.81
CC(=NO)C(C)(C)NCCCNC(C)(C)C(Cn1ccnc1[N+](=O)[O-])=NO ... −1.52
CC1=[N+]([O-])[99Tc-]23(=[O])[N](CCC[N]2C(C)(C)C(C)=[N+]3O)C1(C)C [^99TcO(PnAO), reference compound] ... −2.15
COCC(O)Cn1ccnc1[N+](=O)[O-] (centres unmarked) [Misonidazole, reference compound] ... −1.49
CC(=NO)C(C)(C)NCC(O)CNC(C)(C)C(Cn1ccnc1[N+](=O)[O-])=NO (centres unmarked) ... −1.51
CC1=[N+](O)[99Tc-]23(=[O])[N](CCC[N]2C1(C)C)C(C)(C)C(Cn1cnc([N+](=O)[O-])c1)=[N+]3[O-] ... −1.81

Continue with the compound presented below.
Reported Epc(V), compound CC1=[N+](O)[99Tc-]23(=[O])[N](CCC[N]2C1(C)C)C(C)(C)C(CCn1ccnc1[N+](=O)[O-])=[N+]3[O-] : ____ −1.53
